Ref: patent US20110165145A1

The reader will find reported competition score values listed item by item below.
target: T1, insulin-like growth factor II (IGF-II), amino acids 1-67 (human, UniProt P01344 25-91); test: SPR, IgG on Protein G', then ligand, then BP; competitor BP4; 0 = no significant competition, 5 = competes strongly
T1 construct: recombinant; also called IGF-II (67aa); IGF2
T1 sequence (P01344 25-91): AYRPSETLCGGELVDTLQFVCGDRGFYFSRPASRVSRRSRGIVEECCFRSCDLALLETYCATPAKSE
Expressed in score 0-5, but write only the number.

Record excerpt, results attached:
>  <binder>
M0072-G06 IgG (parental) (antibody, V domains shown) VH: EVQLLESGGGLVQPGGSLRLSCAASGFTFSEYVMWWVRQAPGKGLEWVSVISPSGGYTVYADSVKGRFTISRDNSKNTLYLQMNSLRAEDTAVYYCARDRGGATTLDYWGQGTLVTVSS VL: DIQMTQSPSTLSASVGDRVTITCRASQTISSWLAWYQQKPGKAPKLMIYKAASLGSEVPSRFSGSGSGTEFTLTISSLQPEDFSTYYCQQYKTYPVTFGQGTRLEIK

>  <value-observed>
1

$$$$
>  <binder>
M0064-F02 IgG (parental, non-germlined) (antibody, V domains shown) VH: EVQLLESGGGLVQPGGSLRLSCAASGFTFSNYIMWWVRQAPGKGLEWVSVISSSGGMTRYADSVKGRFTISRDNSKNTLYLQMNSLRAEDTAVYYCARDNGDYVGEKGFDIWGQGTMVTVSS VL: DIQMTQSPSSLSASVGDRVTITCRASQSISNYLNWYQQKPGKAPKLLIYTASTLQSGVPSRFSGSASGTDFTLTINSLQPEDFATYSCQQSYNSPWTFGQGTKVEIK

>  <value-observed>
4

$$$$

# competition score of M0070-H08 IgG (parental) (antibody, V domains shown) VH: EVQLLESGGGLVQPGGSLRLSCAASGFTFSRYWMIWVRQAPGKGLEWVSSIRSSGETKYADSVKGRFTISRDNSKNTLYLQMNSLRAEDTAVYYCARGPLSDYYDSSGYYFDAFDIWGQGTMVTVSS VL: DIQMTQSPSSLSASAGDRVTITCRASQSISSYLNWYQQKPGKAPNLLIYTTSNLQGGVPSRFSGSGSGTDFTLTISSLQPEDFATYYCQQGYSFPLTFGGGTKVEIK = 2
